MEASUREMENT TARGET: Shiga toxin 1 (Stx1) (Escherichia coli O157:H7) (UniProt P08026)
Sequence (P08026 23-315): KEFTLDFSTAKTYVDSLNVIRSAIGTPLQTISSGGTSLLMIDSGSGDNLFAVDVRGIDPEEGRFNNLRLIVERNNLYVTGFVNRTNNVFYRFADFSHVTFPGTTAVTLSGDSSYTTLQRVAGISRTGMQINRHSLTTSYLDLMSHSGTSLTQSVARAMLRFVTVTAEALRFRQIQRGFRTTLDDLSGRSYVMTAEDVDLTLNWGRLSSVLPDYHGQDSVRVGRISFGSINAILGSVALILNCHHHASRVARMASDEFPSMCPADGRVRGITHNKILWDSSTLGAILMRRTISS
PROCEDURE SUMMARY: dilution ELISA, HRP-anti-E-tag
Measured pEC50 values are reported for all entries that follow.
FYI, pEC50 means -log10 of a concentration in mol per litre.

1. Stx-A5 (VHH) VHH: QVQLVESGGGLVQPGGSLRLSCAALEFTLEDYAIAWFRQAPGKEREGVSCISKSGVTKYTDSVKGRFTVARDNAKSTVILQMNNLRPEDTAVYNCAAVRPVFVDSVCTLATRYTYWGEGTQVTVSS :: 7.82

Let us examine a further case.
Reported pEC50 for A5/D10 heterodimer VNA (designed binder) QVQLVESGGGLVQPGGSLRLSCAALEFTLEDYAIAWFRQAPGKEREGVSCISKSGVTKYTDSVKGRFTVARDNAKSTVILQMNNLRPEDTAVYNCAAVRPVFVDSVCTLATRYTYWGEGTQVTVSSAHHSEDPGGGGSGGGGSGGGGSQVQLVETGGLVQAGGSLRLSCAASGVPFSDYTMAWFRQAPGKEREVVARITWRGGGPYYGNSGNGRFAISRDIAKSMVYLHMDSLKPEDTAVYYCAASRLRPALASMASDYDYWGQGTQVSVSSEPKTPKPQ was 7.52
